Tested on: Staphylococcus aureus
EXPERIMENT_DESCRIPTION: Antibacterial activity against quinolone-resistant Staphylococcus aureus CCARM 3505 after 20 hrs by two fold serial dilution assay
Type: functional
EXPERIMENTAL_PARAMETERS: CCARM 3505, 20 h
MEASURED_PARAMETER: MIC (µg/mL)
Value expressed in µg/mL; do not type the unit.

// lookup MIC for Cc1ccc(-c2nn(-c3ccccc3)cc2/C=C2\SC(=S)N([C@H](Cc3ccccc3)C(=O)O)C2=O)c(C)c1
2

Try this compound too: O=C(O)[C@@H](Cc1ccccc1)N1C(=O)/C(=C/c2cn(-c3ccccc3)nc2-c2ccccc2)SC1=S
4

Try this compound too: O=C(O)[C@@H](Cc1ccccc1)N1C(=O)/C(=C/c2cn(-c3ccccc3)nc2-c2ccc(Br)cc2)SC1=S
1

Try this compound too: O=C(O)[C@@H](Cc1ccccc1)N1C(=O)/C(=C/c2cn(-c3ccccc3)nc2-c2ccccc2Cl)SC1=S
2

Try this compound too: COc1ccc(-c2nn(-c3ccccc3)cc2/C=C2\SC(=S)N([C@H](Cc3ccccc3)C(=O)O)C2=O)cc1
4

Try this compound too: COc1ccccc1-c1nn(-c2ccccc2)cc1/C=C1\SC(=S)N([C@H](Cc2ccccc2)C(=O)O)C1=O
16

Try this compound too: O=C(O)[C@@H](Cc1ccccc1)N1C(=O)/C(=C/c2cn(-c3ccccc3)nc2-c2ccc(F)cc2)SC1=S
1

Try this compound too: O=C(O)[C@@H](Cc1ccccc1)N1C(=O)/C(=C/c2cn(-c3ccccc3)nc2-c2ccc([N+](=O)[O-])cc2)SC1=S
1

Try this compound too: O=C(O)[C@@H](Cc1ccccc1)N1C(=O)/C(=C/c2cn(-c3ccccc3)nc2-c2ccc(Cl)cc2Cl)SC1=S
2

Try this compound too: Cc1ccc(-c2nn(-c3ccccc3)cc2/C=C2\SC(=S)N([C@H](Cc3ccccc3)C(=O)O)C2=O)cc1
1

Try this compound too: O=C(O)[C@@H](Cc1ccccc1)N1C(=O)/C(=C/c2cn(-c3ccccc3)nc2-c2ccc(Cl)cc2)SC1=S
2

Try this compound too: COc1cccc(-c2nn(-c3ccccc3)cc2/C=C2\SC(=S)N([C@H](Cc3ccccc3)C(=O)O)C2=O)c1
16

----------
System: Staphylococcus aureus
EXPERIMENT_DESCRIPTION: Antibacterial activity against methicillin-resistant Staphylococcus aureus CCARM 3167 after 20 hrs by two fold serial dilution assay
Type: functional
EXPERIMENTAL_PARAMETERS: CCARM 3167, 20 h
MEASURED_PARAMETER: MIC (µg/mL)
Value expressed in µg/mL; do not type the unit.

// lookup MIC for O=C(O)[C@@H](Cc1ccccc1)N1C(=O)/C(=C/c2cn(-c3ccccc3)nc2-c2ccc(Cl)cc2Cl)SC1=S
1

Try this molecule too: COc1ccc(-c2nn(-c3ccccc3)cc2/C=C2\SC(=S)N([C@H](Cc3ccccc3)C(=O)O)C2=O)cc1
4

Try this molecule too: Cc1ccc(-c2nn(-c3ccccc3)cc2/C=C2\SC(=S)N([C@H](Cc3ccccc3)C(=O)O)C2=O)cc1
1

Try this molecule too: O=C(O)[C@@H](Cc1ccccc1)N1C(=O)/C(=C/c2cn(-c3ccccc3)nc2-c2ccc([N+](=O)[O-])cc2)SC1=S
1

Try this molecule too: CCn1cc(C(=O)O)c(=O)c2cc(F)c(N3CCNCC3)cc21 [NORFLOXACIN]
8

Try this molecule too: O=C(O)[C@@H](Cc1ccccc1)N1C(=O)/C(=C/c2cn(-c3ccccc3)nc2-c2cccc(Br)c2)SC1=S
4

Try this molecule too: O=C(O)[C@@H](Cc1ccccc1)N1C(=O)/C(=C/c2cn(-c3ccccc3)nc2-c2ccc(Br)cc2)SC1=S
1

Try this molecule too: O=C(O)[C@@H](Cc1ccccc1)N1C(=O)/C(=C/c2cn(-c3ccccc3)nc2-c2ccccc2)SC1=S
4
